From: ChEMBL document CHEMBL1154186

Target: Serine/threonine-protein kinase Nek6 (Homo sapiens) (UniProt Q9HC98)
Sequence (Q9HC98 whole entry): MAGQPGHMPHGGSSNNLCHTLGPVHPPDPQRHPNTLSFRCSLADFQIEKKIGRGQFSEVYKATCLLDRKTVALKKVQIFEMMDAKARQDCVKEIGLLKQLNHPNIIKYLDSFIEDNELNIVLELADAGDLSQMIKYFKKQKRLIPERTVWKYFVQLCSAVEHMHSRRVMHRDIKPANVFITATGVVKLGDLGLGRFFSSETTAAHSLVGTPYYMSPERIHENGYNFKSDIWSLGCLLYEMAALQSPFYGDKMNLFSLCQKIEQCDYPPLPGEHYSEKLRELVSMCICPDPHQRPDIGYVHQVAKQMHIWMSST
Experiment: Inhibition of NEK6 assessed as residual enzyme activity at 10 uM relative to untreated control
Attribute Measured: Activity (%)
Express your answer in %, writing the number without its unit.

                     compound_smiles  attribute_measured  reported_value
0   c1ccc2c(c1)[nH]c1c2ccc2cc[nH]c21            Activity              90
1  O=Cc1c[nH]c2ccc3c4ccccc4[nH]c3c12            Activity              86
2   c1ccc2c(c1)[nH]c1c3cc[nH]c3ccc21            Activity              71

Shift focus to the following entry.
stdin: Fill in: Activity of O=Cc1c[nH]c2c1ccc1c3ccccc3[nH]c12 is ___
stdout: 78

###

Target: Calcium/calmodulin-dependent protein kinase kinase 2 (Homo sapiens) (UniProt Q96RR4)
Sequence (Q96RR4 2-588 limits assumed): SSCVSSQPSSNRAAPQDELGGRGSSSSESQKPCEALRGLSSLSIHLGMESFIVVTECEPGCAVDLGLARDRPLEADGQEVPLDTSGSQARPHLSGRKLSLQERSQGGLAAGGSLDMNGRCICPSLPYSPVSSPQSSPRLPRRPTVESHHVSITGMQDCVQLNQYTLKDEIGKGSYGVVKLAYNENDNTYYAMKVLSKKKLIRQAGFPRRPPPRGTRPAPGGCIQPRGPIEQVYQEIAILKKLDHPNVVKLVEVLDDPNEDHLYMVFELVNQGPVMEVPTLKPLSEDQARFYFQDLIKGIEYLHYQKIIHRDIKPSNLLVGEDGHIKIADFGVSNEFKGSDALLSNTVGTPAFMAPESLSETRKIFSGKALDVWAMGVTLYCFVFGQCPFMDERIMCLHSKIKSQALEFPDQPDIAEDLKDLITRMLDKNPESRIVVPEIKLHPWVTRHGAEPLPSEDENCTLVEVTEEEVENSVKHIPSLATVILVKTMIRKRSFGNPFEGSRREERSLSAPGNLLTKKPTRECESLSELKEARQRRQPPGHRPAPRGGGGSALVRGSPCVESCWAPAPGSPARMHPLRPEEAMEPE
Experiment: Inhibition of CAMKKbeta assessed as residual enzyme activity at 10 uM relative to untreated control
// reported Activity per item
Express your answer in %, writing the number without its unit.

Below: 3 compounds and their reported Activity.
                     compound_smiles  reported_value
0  O=Cc1c[nH]c2c1ccc1c3ccccc3[nH]c12              56
1   c1ccc2c(c1)[nH]c1c3cc[nH]c3ccc21              87
2  O=Cc1c[nH]c2ccc3c4ccccc4[nH]c3c12             102

Shift focus to the following entry.
stdin: Fill in: Activity of c1ccc2c(c1)[nH]c1c2ccc2cc[nH]c21 is ___
stdout: 93

###

Target: Serine/threonine-protein kinase pim-2 (Homo sapiens)
Experiment: Inhibition of Pim-2 assessed as residual enzyme activity at 10 uM relative to untreated control
Given measured Activity, output Yes if it is greater than or equal to 50% and No if not.

These recorded examples may help you get a feel for the data.
In [3]: df
Out[3]:
                            compound_smiles  assigned_class
0          c1ccc2c(c1)[nH]c1c3cc[nH]c3ccc21             Yes
1          c1ccc2c(c1)[nH]c1c2ccc2cc[nH]c21             Yes
2  O=Cc1c[nH]c2c1ccc1c3cc(-c4ccc(F)cc4)ccc3[nH]c12             Yes
3  O=Cc1c[nH]c2c1ccc1c3cc(-c4ccc(C(F)(F)F)cc4)ccc3[nH]c12             Yes
4  O=Cc1c[nH]c2c1ccc1c3cc(-c4ccc(OC(F)(F)F)cc4)ccc3[nH]c12             Yes
5        Brc1ccc2[nH]c3c(ccc4cc[nH]c43)c2c1              No

Attention now shifts to the item below.
stdin: Evaluate O=Cc1c[nH]c2c1ccc1c3cc(-c4ccc(F)cc4F)ccc3[nH]c12 : Activity at minimum 50%?
stdout: No

###

Molecular target: Serine/threonine-protein kinase pim-1 (Homo sapiens) (UniProt P11309)
Sequence (P11309 whole entry, looked up): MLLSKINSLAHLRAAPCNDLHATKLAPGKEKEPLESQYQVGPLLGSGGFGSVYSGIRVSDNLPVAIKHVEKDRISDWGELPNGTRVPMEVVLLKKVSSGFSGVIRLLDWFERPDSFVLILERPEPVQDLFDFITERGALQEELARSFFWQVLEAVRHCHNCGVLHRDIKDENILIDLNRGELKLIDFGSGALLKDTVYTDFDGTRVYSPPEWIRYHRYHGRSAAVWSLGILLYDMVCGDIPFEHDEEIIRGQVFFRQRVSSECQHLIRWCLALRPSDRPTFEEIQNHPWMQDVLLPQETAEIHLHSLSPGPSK
Assay: Inhibition of Pim-1 assessed as residual enzyme activity at 10 uM relative to untreated control
// reported Activity per item
Express your answer in %, writing the number without its unit.

In [3]: df
Out[3]:
                            compound_smiles  attribute_measured  reported_value
0  COc1cccc(-c2ccc3[nH]c4c(ccc5c(C=O)c[nH]c54)c3c2)c1            Activity              17
1          c1ccc2c(c1)[nH]c1c2ccc2cc[nH]c21            Activity              20

stdin: Identify the measured Activity of O=Cc1c[nH]c2c1ccc1c3cc(-c4ccccc4)ccc3[nH]c12 for Serine/threonine-protein kinase pim-1 (Homo sapiens) (UniProt P11309).
stdout: 16

stdin: Identify the measured Activity of O=Cc1c[nH]c2c1ccc1c3cc(-c4ccc(OC(F)(F)F)cc4)ccc3[nH]c12 for Serine/threonine-protein kinase pim-1 (Homo sapiens) (UniProt P11309).
stdout: 29

stdin: Identify the measured Activity of OCCc1c[nH]c2c1ccc1c3ccccc3[nH]c12 for Serine/threonine-protein kinase pim-1 (Homo sapiens) (UniProt P11309).
stdout: 35

stdin: Identify the measured Activity of NC(=O)c1c[nH]c2c1ccc1c3ccccc3[nH]c12 for Serine/threonine-protein kinase pim-1 (Homo sapiens) (UniProt P11309).
stdout: 9
